Below, each entry is listed with its recorded cell viability.
# Test system: Vero E6
# procedure details: cell viability relative to DMSO; higher = less toxic
# test conditions: 72 h; 1 nM
value kind: cell viability (%)

[[record]]
molecule = "Nc1ccn([C@H]2C[C@H](O)[C@@H](CO)O2)c(=O)n1"
reported_result = 104

[[record]]
molecule = "CCN(CC)CCCCN1c2ccccc2Oc2ccc(Cl)cc21"
reported_result = 99.5

[[record]]
molecule = "Oc1c(Cl)cc(Cl)c(Cl)c1Cc1c(O)c(Cl)cc(Cl)c1Cl"
reported_result = 102

[[record]]
molecule = "CCc1nc(-c2cccc(C)c2)c(-c2ccnc(NC(=O)c3ccccc3)c2)s1"
reported_result = 93.5

[[record]]
molecule = "CC(C)(CC(=O)N1CCCC1)NCC(=O)N1C[C@@H](F)C[C@H]1C#N"
reported_result = 99.6

[[record]]
molecule = "N#CCCCSC(=N)N"
reported_result = 96.6

[[record]]
molecule = "Nc1nonc1/C(=N/O)Nc1ccc(F)c(Cl)c1"
reported_result = 106

[[record]]
molecule = "CCCn1c(=O)c2nc(-c3ccccc3)[nH]c2n(CCC)c1=O"
reported_result = 96.6

[[record]]
molecule = "CC(=O)O[C@]1(C(C)=O)CC[C@H]2[C@@H]3C=C(Cl)C4=CC(=O)CC[C@]4(C)[C@H]3CC[C@@]21C [chlormadinone-acetate]"
reported_result = 93.2

